# Tested on: 422866-222-R5-J1-PDC complex spheroids viability;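 note: spheroids exposed to compounds for 7 days; 100% = DMSO vehicle control viability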
# assayInfo: Anticancer human tumor 422866-222-R5-J1-PDC patient-derived pancreatic adenocarcinoma cell line growth inhibition [RAS]
# conditionsUsed: second compound 0.000949 µM; first compound 0.0316 µM; hits give low values
observedProperty: viability, T/C (%)

molecule | measurementTarget | observedProperty | unitString | observed
NC1c2ccccc2OC12CCN(c1cnc3c(N4CCCc5ncccc54)n[nH]c3n1)CC2 (stereo not drawn) + CCn1c(-c2cccnc2C(C)OC)c2c3cc(ccc31)N1CCOC(CC(NC(=O)C(C(C)C)N(C)C(=O)C3(F)CCN(C(=O)C#CC(C)(C)N(C)C)CC3)C(=O)N3CCCC(N3)C(=O)OCC(C)(C)C2)C1 | 422866-222-R5-J1-PDC complex spheroids viability | viability, T/C | % | 20.1
CC(Nc1ccc2c(c1)OCCn1cc(N3C(=O)OCC3C(F)F)nc1-2)C(N)=O (stereo not drawn) + CCn1c(-c2cc(N3CCN(C)CC3)cnc2C(C)OC)c2c3cc(ccc31)-c1csc(n1)CC(NC(=O)C1CC1C)C(=O)N1CCCC(N1)C(=O)OCC(C)(C)C2 | 422866-222-R5-J1-PDC complex spheroids viability | viability, T/C | % | 24.6
C=CC(=O)N1CCN(c2nc(OCC3CCCN3C)nc3c(F)c(-c4nc(N)cc(C)c4C(F)(F)F)c(Cl)cc23)C(C)C1 (stereo not drawn) + CCn1c(-c2cc(N3CCN(C)CC3)cnc2C(C)OC)c2c3cc(ccc31)-c1csc(n1)CC(NC(=O)C1CC1C)C(=O)N1CCCC(N1)C(=O)OCC(C)(C)C2 | 422866-222-R5-J1-PDC complex spheroids viability | viability, T/C | % | 16.9
CC(C)NCC(C(=O)N1CCN(c2ncnc3c2C(C)CC3O)CC1)c1ccc(Cl)cc1 (stereo not drawn) + CCn1c(-c2cc(N3CCN(C)CC3)cnc2C(C)OC)c2c3cc(ccc31)-c1csc(n1)CC(NC(=O)C1CC1C)C(=O)N1CCCC(N1)C(=O)OCC(C)(C)C2 | 422866-222-R5-J1-PDC complex spheroids viability | viability, T/C | % | 29.7
CC(C)n1nc(-c2ccc3oc(N)nc3c2)c2c(N)ncnc21 + CCn1c(-c2cc(N3CCN(C)CC3)cnc2C(C)OC)c2c3cc(ccc31)-c1csc(n1)CC(NC(=O)C1CC1C)C(=O)N1CCCC(N1)C(=O)OCC(C)(C)C2 | 422866-222-R5-J1-PDC complex spheroids viability | viability, T/C | % | 19.7
Cc1nc(N2CCC3(CC2)COC(C)C3N)c(CO)nc1Sc1ccnc(N)c1Cl (stereo not drawn) + CCn1c(-c2cc(N3CCN(C)CC3)cnc2C(C)OC)c2c3cc(ccc31)-c1csc(n1)CC(NC(=O)C1CC1C)C(=O)N1CCCC(N1)C(=O)OCC(C)(C)C2 | 422866-222-R5-J1-PDC complex spheroids viability | viability, T/C | % | 29.3
CCN1CCN(Cc2ccc(Nc3ncc(F)c(-c4cc(F)c5nc(C)n(C(C)C)c5c4)n3)nc2)CC1 + CCn1c(-c2cccnc2C(C)OC)c2c3cc(ccc31)N1CCOC(CC(NC(=O)C(C(C)C)N(C)C(=O)C3(F)CCN(C(=O)C#CC(C)(C)N(C)C)CC3)C(=O)N3CCCC(N3)C(=O)OCC(C)(C)C2)C1 | 422866-222-R5-J1-PDC complex spheroids viability | viability, T/C | % | 27.2
CC1(O)CCCC1n1c(=O)c(C(F)F)cc2cnc(NC3CCN(S(C)(=O)=O)CC3)nc21 (stereo not drawn) + CCn1c(-c2cccnc2C(C)OC)c2c3cc(ccc31)N1CCOC(CC(NC(=O)C(C(C)C)N(C)C(=O)C3(F)CCN(C(=O)C#CC(C)(C)N(C)C)CC3)C(=O)N3CCCC(N3)C(=O)OCC(C)(C)C2)C1 | 422866-222-R5-J1-PDC complex spheroids viability | viability, T/C | % | 28.6
